- Target Desc: Nuclear factor erythroid 2-related factor 2 (Mus musculus)
- Method: Activation of Nrf2 in mouse Hepa1c1c7 cells assessed as increase in NQO1 activity at 12.5 uM using menadione as substrate incubated for 20 mins followed by substrate addition and measured after 30 mins by spectrophotometry relative to control
- Experimental Conditions: filed as activator, time 50.0 min
Quantity: T/C

I. NS(=O)(=O)c1ccc(-n2c(S)nc3c(I)cc(I)cc3c2=O)cc1
II. COc1cc(NC(=O)CSc2nc3c(I)cc(I)cc3c(=O)n2-c2ccc(S(N)(=O)=O)cc2)cc(OC)c1
// query In the pair I and II , the larger recorded T/C belongs to which? I would appreciate it if you answered with the label of your choice.
// result II
(II: 1.52, I: 1.06)

---

- Tested on: Nrf2 (Mus musculus)
- Method: Activation of Nrf2 in mouse Hepa1c1c7 cells assessed as increase in NQO1 activity at 10 uM using menadione as substrate incubated for 20 mins followed by substrate addition and measured after 30 mins by spectrophotometry relative to control
- Experimental Conditions: filed as activator, time 50.0 min
Quantity: T/C

| Chemical String | Target Desc | Value Observed |
| --- | --- | --- |
| COc1cc(NC(=O)CSc2nc3c(I)cc(I)cc3c(=O)n2-c2ccc(S(N)(=O)=O)cc2)cc(OC)c1OC | Nrf2 (Mus musculus) | 1.43 |
| Cc1cc([N+](=O)[O-])ccc1NC(=O)CSc1nc2c(I)cc(I)cc2c(=O)n1-c1ccc(S(N)(=O)=O)cc1 | Nrf2 (Mus musculus) | 1.28 |
| CCc1cccc(NC(=O)CSc2nc3c(I)cc(I)cc3c(=O)n2-c2ccc(S(N)(=O)=O)cc2)c1 | Nrf2 (Mus musculus) | 1.09 |
| NS(=O)(=O)c1ccc(-n2c(SCC(=O)Nc3ccc([N+](=O)[O-])cc3[N+](=O)[O-])nc3c(I)cc(I)cc3c2=O)cc1 | Nrf2 (Mus musculus) | 1.2 |
| CCOc1ccc(NC(=O)CSc2nc3c(I)cc(I)cc3c(=O)n2-c2ccc(S(N)(=O)=O)cc2)cc1 | Nrf2 (Mus musculus) | 0.99 |
| CCc1ccccc1NC(=O)CSc1nc2c(I)cc(I)cc2c(=O)n1-c1ccc(S(N)(=O)=O)cc1 | Nrf2 (Mus musculus) | 1.01 |

---

- Target Desc: UniProt:Q60795
- Method: Activation of Nrf2 in mouse Hepa1c1c7 cells assessed as increase in NQO1 activity at 6.25 uM using menadione as substrate incubated for 20 mins followed by substrate addition and measured after 30 mins by spectrophotometry relative to control
- Experimental Conditions: filed as activator, time 50.0 min
Quantity: T/C

| Chemical String | T/C |
| --- | --- |
| COc1cc(NC(=O)CSc2nc3c(I)cc(I)cc3c(=O)n2-c2ccc(S(N)(=O)=O)cc2)cc(OC)c1 | 1.22 |
| Cc1ccccc1NC(=O)CSc1nc2c(I)cc(I)cc2c(=O)n1-c1ccc(S(N)(=O)=O)cc1 | 1.13 |
| CCc1ccc(NC(=O)CSc2nc3c(I)cc(I)cc3c(=O)n2-c2ccc(S(N)(=O)=O)cc2)cc1 | 0.99 |
| Cc1ccc(NC(=O)CSc2nc3c(I)cc(I)cc3c(=O)n2-c2ccc(S(N)(=O)=O)cc2)cc1 | 0.99 |
| Cc1cccc([N+](=O)[O-])c1NC(=O)CSc1nc2c(I)cc(I)cc2c(=O)n1-c1ccc(S(N)(=O)=O)cc1 | 0.91 |
| NS(=O)(=O)c1ccc(-n2c(S)nc3c(I)cc(I)cc3c2=O)cc1 | 1.02 |
| Cc1cccc(NC(=O)CSc2nc3c(I)cc(I)cc3c(=O)n2-c2ccc(S(N)(=O)=O)cc2)c1 | 1.06 |
| NS(=O)(=O)c1ccc(-n2c(SCC(=O)Nc3ccccc3)nc3c(I)cc(I)cc3c2=O)cc1 | 1.11 |
| COc1ccc(NC(=O)CSc2nc3c(I)cc(I)cc3c(=O)n2-c2ccc(S(N)(=O)=O)cc2)cc1 | 0.99 |

---

- Target Desc: Nuclear factor erythroid 2-related factor 2 (Mus musculus) (UniProt Q60795)
- Sequence (Q60795 whole entry, looked up): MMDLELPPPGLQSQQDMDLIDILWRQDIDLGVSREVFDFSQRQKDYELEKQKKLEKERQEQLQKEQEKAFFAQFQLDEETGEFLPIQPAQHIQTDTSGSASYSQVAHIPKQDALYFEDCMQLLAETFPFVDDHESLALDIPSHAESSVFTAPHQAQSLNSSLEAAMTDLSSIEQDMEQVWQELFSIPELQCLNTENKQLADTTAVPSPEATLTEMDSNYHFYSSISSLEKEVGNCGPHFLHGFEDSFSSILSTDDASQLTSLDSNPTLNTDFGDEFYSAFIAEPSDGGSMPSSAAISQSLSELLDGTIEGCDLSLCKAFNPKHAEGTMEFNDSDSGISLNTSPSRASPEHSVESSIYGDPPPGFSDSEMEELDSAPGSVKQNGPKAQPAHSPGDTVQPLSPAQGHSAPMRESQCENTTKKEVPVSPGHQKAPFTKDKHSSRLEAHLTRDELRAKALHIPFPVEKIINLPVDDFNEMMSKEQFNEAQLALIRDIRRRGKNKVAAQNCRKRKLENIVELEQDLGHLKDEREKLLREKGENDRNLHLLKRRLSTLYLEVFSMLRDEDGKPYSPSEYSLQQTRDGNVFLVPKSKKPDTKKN
- Method: Activation of Nrf2 in mouse Hepa1c1c7 cells assessed as increase in NQO1 activity at 25 uM using menadione as substrate incubated for 20 mins followed by substrate addition and measured after 30 mins by spectrophotometry relative to control
- Experimental Conditions: filed as activator, time 50.0 min
Quantity: T/C

| Chemical String | Target Desc | Quantity | Value Observed |
| --- | --- | --- | --- |
| Cc1cccc(NC(=O)CSc2nc3c(I)cc(I)cc3c(=O)n2-c2ccc(S(N)(=O)=O)cc2)c1 | Nuclear factor erythroid 2-related factor 2 (Mus musculus) (UniProt Q60795) | T/C | 1.27 |
| NS(=O)(=O)c1ccc(-n2c(S)nc3c(I)cc(I)cc3c2=O)cc1 | Nuclear factor erythroid 2-related factor 2 (Mus musculus) (UniProt Q60795) | T/C | 1.05 |
| Cc1ccc(NC(=O)CSc2nc3c(I)cc(I)cc3c(=O)n2-c2ccc(S(N)(=O)=O)cc2)cc1 | Nuclear factor erythroid 2-related factor 2 (Mus musculus) (UniProt Q60795) | T/C | 1.08 |
| CCc1ccc(NC(=O)CSc2nc3c(I)cc(I)cc3c(=O)n2-c2ccc(S(N)(=O)=O)cc2)cc1 | Nuclear factor erythroid 2-related factor 2 (Mus musculus) (UniProt Q60795) | T/C | 1.03 |
| Cc1ccccc1NC(=O)CSc1nc2c(I)cc(I)cc2c(=O)n1-c1ccc(S(N)(=O)=O)cc1 | Nuclear factor erythroid 2-related factor 2 (Mus musculus) (UniProt Q60795) | T/C | 1.31 |
| NS(=O)(=O)c1ccc(-n2c(SCC(=O)Nc3ccccc3)nc3c(I)cc(I)cc3c2=O)cc1 | Nuclear factor erythroid 2-related factor 2 (Mus musculus) (UniProt Q60795) | T/C | 1.26 |
| COc1cc(NC(=O)CSc2nc3c(I)cc(I)cc3c(=O)n2-c2ccc(S(N)(=O)=O)cc2)cc(OC)c1 | Nuclear factor erythroid 2-related factor 2 (Mus musculus) (UniProt Q60795) | T/C | 1.73 |
| COc1ccc(NC(=O)CSc2nc3c(I)cc(I)cc3c(=O)n2-c2ccc(S(N)(=O)=O)cc2)cc1 | Nuclear factor erythroid 2-related factor 2 (Mus musculus) (UniProt Q60795) | T/C | 1.18 |
| Cc1cccc([N+](=O)[O-])c1NC(=O)CSc1nc2c(I)cc(I)cc2c(=O)n1-c1ccc(S(N)(=O)=O)cc1 | Nuclear factor erythroid 2-related factor 2 (Mus musculus) (UniProt Q60795) | T/C | 1.34 |

---

- System: Nrf2 (Mus musculus)
- Method: Activation of Nrf2 in mouse Hepa1c1c7 cells assessed as increase in NQO1 activity at 0.625 uM using menadione as substrate incubated for 20 mins followed by substrate addition and measured after 30 mins by spectrophotometry relative to control
- Experimental Conditions: filed as activator, time 50.0 min
Quantity: T/C

| Chemical String | T/C |
| --- | --- |
| COc1cc(NC(=O)CSc2nc3c(I)cc(I)cc3c(=O)n2-c2ccc(S(N)(=O)=O)cc2)cc(OC)c1OC | 1.08 |
| CCc1cccc(NC(=O)CSc2nc3c(I)cc(I)cc3c(=O)n2-c2ccc(S(N)(=O)=O)cc2)c1 | 1.02 |
| NS(=O)(=O)c1ccc(-n2c(SCC(=O)Nc3ccc([N+](=O)[O-])cc3[N+](=O)[O-])nc3c(I)cc(I)cc3c2=O)cc1 | 1.04 |
| CCOc1ccc(NC(=O)CSc2nc3c(I)cc(I)cc3c(=O)n2-c2ccc(S(N)(=O)=O)cc2)cc1 | 1.02 |
| CCc1ccccc1NC(=O)CSc1nc2c(I)cc(I)cc2c(=O)n1-c1ccc(S(N)(=O)=O)cc1 | 0.97 |
| Cc1cc([N+](=O)[O-])ccc1NC(=O)CSc1nc2c(I)cc(I)cc2c(=O)n1-c1ccc(S(N)(=O)=O)cc1 | 1.01 |

---

- Test system: Nrf2 (Mus musculus)
- Method: Activation of Nrf2 in mouse Hepa1c1c7 cells assessed as increase in NQO1 activity at 2.5 uM using menadione as substrate incubated for 20 mins followed by substrate addition and measured after 30 mins by spectrophotometry relative to control
- Experimental Conditions: filed as activator, time 50.0 min
Quantity: T/C

| Chemical String | T/C |
| --- | --- |
| CCc1ccccc1NC(=O)CSc1nc2c(I)cc(I)cc2c(=O)n1-c1ccc(S(N)(=O)=O)cc1 | 0.97 |
| Cc1cc([N+](=O)[O-])ccc1NC(=O)CSc1nc2c(I)cc(I)cc2c(=O)n1-c1ccc(S(N)(=O)=O)cc1 | 1 |
| CCOc1ccc(NC(=O)CSc2nc3c(I)cc(I)cc3c(=O)n2-c2ccc(S(N)(=O)=O)cc2)cc1 | 1.02 |
| CCc1cccc(NC(=O)CSc2nc3c(I)cc(I)cc3c(=O)n2-c2ccc(S(N)(=O)=O)cc2)c1 | 1.04 |
| COc1cc(NC(=O)CSc2nc3c(I)cc(I)cc3c(=O)n2-c2ccc(S(N)(=O)=O)cc2)cc(OC)c1OC | 1.16 |
| NS(=O)(=O)c1ccc(-n2c(SCC(=O)Nc3ccc([N+](=O)[O-])cc3[N+](=O)[O-])nc3c(I)cc(I)cc3c2=O)cc1 | 1.04 |
